experiment: Inhibition of Escherichia coli MurD assessed as residual activity
attribute-measured: IC50 (µM)
Answers are plain numbers, in µM.

[[record]]
mol_smiles = "O=C(O)CC[C@@H](NC(=O)c1ccc(CNc2cccc(/C=C3\\SC(=S)NC3=O)c2)cc1)C(=O)O"
attribute_measured = "IC50"
endpoint_unit = "µM"
value_measured = 174


Shift focus to the following entry.
Find the recorded IC50 belonging to "O=C(O)CC[C@H](NC(=O)c1ccc(CNc2cccc(/C=C3\SC(=S)NC3=O)c2)cc1)C(=O)O" and report it. 206

====

Please provide measured Activity for the entries that follow.
system: Escherichia coli; assay: Inhibition of Escherichia coli MurD assessed as residual activity at 500 uM
Answers are plain numbers, in %.

[[record]]
mol_smiles = "COC(=O)CC[C@H](NC(=O)c1ccc(NCc2cnc3[nH]c(N)nc(=O)c3n2)cc1)C(=O)OC"
value_measured = 96

[[record]]
mol_smiles = "COC(=O)CC[C@@H](NC(=O)c1ccc(CNc2ccc3[nH]c(=O)[nH]c(=O)c3c2)cc1)C(=O)OC"
value_measured = 91

[[record]]
mol_smiles = "COC(=O)CC[C@H](NC(=O)c1ccc(CNc2ccc3[nH]c(=O)[nH]c(=O)c3c2)cc1)C(=O)OC"
value_measured = 92

[[record]]
mol_smiles = "Nc1nc(=O)c2nc(CNc3ccc(C(=O)N[C@@H](CCC(=O)O)C(=O)O)cc3)cnc2[nH]1"
value_measured = 95

[[record]]
mol_smiles = "O=C(O)CC[C@@H](NC(=O)c1ccc(CNc2ccc3[nH]c(=O)[nH]c(=O)c3c2)cc1)C(=O)O"
value_measured = 77


Please look at the items below and tell me Activity for each one, in order.
1. COC(=O)CC[C@@H](NC(=O)c1ccc(CNc2ccc3nc(N)nc(N)c3c2)cc1)C(=O)OC
2. Nc1nc(N)c2cc(NCc3ccc(C(=O)N[C@H](CCC(=O)O)C(=O)O)cc3)ccc2n1
3. O=C(O)CC[C@H](NC(=O)c1ccc(CNc2ccc3[nH]c(=O)[nH]c(=O)c3c2)cc1)C(=O)O
4. Nc1nc(N)c2cc(NCc3ccc(C(=O)N[C@@H](CCC(=O)O)C(=O)O)cc3)ccc2n1

1. 87
2. 82
3. 81
4. 80

Find the recorded Activity belonging to "COC(=O)CC[C@H](NC(=O)c1ccc(CNc2ccc3nc(N)nc(N)c3c2)cc1)C(=O)OC" and report it. 81
